Molecular target: mouse TMEM16A mutant Y514A (Mus musculus, UniProt Q8BHY3, Y514A)
Construct: expressed in transfected cells; host or cells: HEK293T
Sequence (Q8BHY3 whole entry Y514A): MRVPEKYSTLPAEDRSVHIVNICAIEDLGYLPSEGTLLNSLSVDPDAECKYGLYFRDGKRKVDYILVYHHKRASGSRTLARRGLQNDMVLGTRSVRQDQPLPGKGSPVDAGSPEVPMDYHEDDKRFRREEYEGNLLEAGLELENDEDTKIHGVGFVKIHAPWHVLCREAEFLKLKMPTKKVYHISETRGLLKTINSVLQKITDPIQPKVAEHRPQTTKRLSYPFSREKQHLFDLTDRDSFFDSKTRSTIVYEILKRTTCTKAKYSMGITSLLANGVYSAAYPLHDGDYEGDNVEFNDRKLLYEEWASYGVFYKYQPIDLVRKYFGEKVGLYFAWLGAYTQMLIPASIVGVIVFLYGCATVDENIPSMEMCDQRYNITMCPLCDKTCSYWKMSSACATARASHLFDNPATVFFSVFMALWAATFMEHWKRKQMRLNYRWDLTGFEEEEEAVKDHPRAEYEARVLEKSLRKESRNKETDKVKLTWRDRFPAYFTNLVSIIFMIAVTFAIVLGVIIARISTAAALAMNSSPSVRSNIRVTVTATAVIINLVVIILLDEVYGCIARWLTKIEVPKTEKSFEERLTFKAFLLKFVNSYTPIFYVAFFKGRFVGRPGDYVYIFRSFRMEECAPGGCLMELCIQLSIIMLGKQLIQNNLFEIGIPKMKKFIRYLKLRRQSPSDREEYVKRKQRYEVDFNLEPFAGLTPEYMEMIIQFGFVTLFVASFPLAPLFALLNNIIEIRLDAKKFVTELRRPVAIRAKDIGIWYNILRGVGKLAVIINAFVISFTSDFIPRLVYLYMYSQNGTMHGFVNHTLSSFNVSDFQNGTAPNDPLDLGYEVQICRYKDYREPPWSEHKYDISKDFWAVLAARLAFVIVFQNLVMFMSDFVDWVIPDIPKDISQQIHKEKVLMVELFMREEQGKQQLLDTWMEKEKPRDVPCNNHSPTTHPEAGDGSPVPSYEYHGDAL
Experiment: Inside-out patch recording of 1PBC block, mutant Y514A
Type: cell-based
Details: Y514A; V -80 mV
Method: HEK293T cells (ATCC CRL-1573) were maintained in Dulbecco’s modified Eagle’s medium (DMEM; Sigma-Aldrich) supplemented with 10 U ml^−1 penicillin, 0.1 mg ml^−1 streptomycin (Sigma-Aldrich), 2 mM L-glutamine (Sigma-Aldrich), and 10% FBS (Sigma-Aldrich) in a humidified atmosphere containing 5% CO2 at 37 °C. […]
measuredAttribute: IC50 (µM)
Enter your answer as a number in µM; do not include the unit.

query: Enter reported IC50 observed with mouse TMEM16A mutant Y514A (Mus musculus, UniProt Q8BHY3, Y514A) for N#Cc1c(C(F)(F)F)cc(O)n2c1nc1ccccc12 [1PBC]
result: 47.4
